Test: Compound gel-forming ability in water (visual inspection, tube tapping assay, tilted tube assay)
Type: physicochemical
Conditions: Table 5; 6% w/w
resultType: propensity to form gels, wild-type counterparts, 6%

{"columns": ["substance", "result"],
 "data": [
  ["RPKPQQFF-Sar-L-Met-(O2)-NH2 [SEQ ID NO:69, reference compound]", "AS/IS"],
  ["(Glp)RPRLSHKGP(Nle)PF-NH2 (pyroGlu; Nle; C-terminal amide) [SEQ ID NO:18, reference compound]", "AS/IS"]
]}

* * *

Assay: Compound gel-forming ability in water (visual inspection, tube tapping assay, tilted tube assay)
Format: physicochemical
Conditions: Table 5; 3% w/w
resultType: propensity to form gels, chimeric or mutated polypeptides, 3%

{"columns": ["substance", "result"],
 "data": [
  ["Pal-HSY-(D-Phe)-QWAVGHL-(4-Cl)Phe-NH2 [SEQ ID NO:255]", "AS/IS"],
  ["Pal-HSYKRPPGFS-(DβNal)-Ile-NH2 [SEQ ID NO:261]", "AS/IS"],
  ["(G1p)RPRLSHKGP(Nle)PF-K(Pal)HSY-NH2 [SEQ ID NO:262]", "AS/IS"]
]}

* * *

Assay: Compound gel-forming ability in water (visual inspection, tube tapping assay, tilted tube assay)
Assay type: physicochemical
Conditions: 11% w/w in water
Where no end group is shown, it is not given here. The star is where a group is joined. Palmitoyl = CCCCCCCCCCCCCCCC(=O)*

{"columns": ["substance", "gel formation at 11% w/w"],
 "data": [
  ["SVSEIQLMHNLGKHLNSMERVEWLRKKLQDVHNF [SEQ ID NO:25, reference compound]", "does not form gel"],
  ["Pal-RQSMNNFQGLRSFGCRFGTCTVQKLAHQIYQFTDKDKDNVAPRSKISPQGY-NH2 [SEQ ID NO:274]", "semisolid gel"],
  ["Pal-SSPHSY-miniPEG-YRSRKYSSVVY-NH2 ({Palmitoyl-Ser-Ser-Pro-H2N-Ser-Tyr-miniPEG}-YRSRKYSSVVY-NH2) [SEQ ID NO:249]", "semisolid gel"],
  ["IVLSLDVPIGLLQILLEQARARAAREQATTNARILARVGHC-NH2 [SEQ ID NO:31, reference compound]", "does not form gel"],
  ["(Glp)RPRLSHKGP(Nle)PF-NH2 (pyroGlu; Nle; C-terminal amide) [SEQ ID NO:18, reference compound]", "does not form gel"],
  ["RPKPQQFFGLM-NH2 [SEQ ID NO:23, reference compound]", "semisolid gel"]
]}

* * *

Assay: Compound gel-forming ability in water (visual inspection, tube tapping assay, tilted tube assay)
Format: physicochemical
Settings: Table 5; 11% w/w
resultType: propensity to form gels, chimeric or mutated polypeptides, 11%

{"columns": ["substance", "result"],
 "data": [
  ["Pal-HSYSLDVPIGLLQILLEQARARAAREQATTNARILARVGHC-NH2 [SEQ ID NO:265]", "AS/IS"]
]}

* * *

Experiment: Compound gel-forming ability in water (visual inspection, tube tapping assay, tilted tube assay)
Assay type: physicochemical
Conditions: 6% w/w in water
Where no end group is shown, it is not given here.

{"columns": ["substance", "gel formation at 6% w/w"],
 "data": [
  ["Pal-KVQKLSAPVDPSSPHSY-miniPEG-CSNLSTCVLGKLSQELHKLQTYPRTNTGSGTP-NH2 [SEQ ID NO:217]", "liquid gel"],
  ["FTLSLDVPTNIMNLLFNIAKAKNLRAQAAANAHLMAQI-NH2 [SEQ ID NO:10, reference compound]", "semisolid gel"],
  ["Pal-RQSMNNFQGLRSFGCRFGTCTVQKLAHQIYQFTDKDKDNVAPRSKISPQGY-NH2 [SEQ ID NO:274]", "semisolid gel"],
  ["Pal-KVQKLSAPVDPSSPHSY-miniPEG-CYIQNCPLG-NH2 [SEQ ID NO:205]", "liquid gel"],
  ["Pal-HSYVMGHFRWDRF-NH2 [SEQ ID NO:260]", "liquid gel"],
  ["Pal-SSPHSY-miniPEG-PFRSVQ-NH2 [SEQ ID NO:242]", "liquid gel"]
]}

* * *

Test: Compound gel-forming ability in water (visual inspection, tube tapping assay, tilted tube assay)
Assay type: physicochemical
Settings: Table 1; 11% w/w in aqueous solution, room temperature
resultType: Physical property at 11% w/w

{"columns": ["compound", "result"],
 "data": [
  ["N=C(N)NCCC[C@@H](N)C(=O)N[C@@H](CCCNC(=N)N)C(=O)N1CCC[C@H]1C(=O)N1C[C@H](O)C[C@H]1C(=O)NCC(=O)N[C@@H](Cc1cccs1)C(=O)N[C@@H](CO)C(=O)N1Cc2ccccc2C[C@@H]1C(=O)N1[C@H](C(=O)N[C@@H](CCCNC(=N)N)C(=O)O)C[C@@H]2CCCC[C@@H]21 [SEQ ID NO:32, reference compound]", "AS/IS"],
  ["NC(=O)CC[C@@H]1NC(=O)[C@H](Cc2ccccc2)NC(=O)[C@H](Cc2ccc(O)cc2)NC(=O)[C@@H](N)CSSC[C@@H](C(=O)N2CCC[C@H]2C(=O)N[C@@H](CCCN=C(N)N)C(=O)NCC(N)=O)NC(=O)[C@H](CC(N)=O)NC1=O [SEQ ID NO:17, reference compound]", "AS/IS"]
]}

* * *

Assay: Compound gel-forming ability in water (visual inspection, tube tapping assay, tilted tube assay)
Format: physicochemical
Settings: 3% w/w in water

{"columns": ["substance", "gel formation at 3% w/w"],
 "data": [
  ["Pal-SSPHSY-miniPEG-(D-Ala)-(D-(β-naphthyl))-AAW-(D-Phe)-Lys-NH2 [SEQ ID NO:235]", "semisolid gel"],
  ["Pal-KVQKLSAPVDPSSPHSY-miniPEG-EHWSY-(D-2Nal)-LRPG-NH2 [SEQ ID NO:201]", "semisolid gel"]
]}

* * *

Assay: Compound gel-forming ability in water (visual inspection, tube tapping assay, tilted tube assay);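 also: peptides mixed with de-ionized water at about 22-25 °C, judged after 20 min by eye plus tube tapping (10 taps, moves counted) and 90° tilt mobility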
Assay type: physicochemical
Conditions: 20% w/w in water
Where no end group is shown, it is not given here. [ ]: non-standard residue; d: D form. The star is where a group is joined. Palmitoyl = CCCCCCCCCCCCCCCC(=O)*; AEEA = NCCOCCOCC(=O)O

{"columns": ["substance", "gel formation at 20% w/w"],
 "data": [
  ["Pal-SSPHSY-miniPEG-SLRRSSCFGGRMDRIGAQSGLGCNSFRY-NH2 [SEQ ID NO:238]", "semisolid gel"],
  ["Pal-SSPHSY-miniPEG-EAYKAAEKAYAAKEAAKEAAKAKAEKKAAYAKAKAAKYEKKAKKAAAEYKKK ({Palmitoyl-Ser-Ser-Pro-H2N-Ser-Tyr-miniPEG}-EAYKAAEKAYAAKEAAKEAAKAKAEKKAAYAKAKAAKYEKKAKKAAAEYKKK) [SEQ ID NO:245]", "semisolid gel"],
  ["(G1p)RPRLSHKGP(Nle)PF-miniPEG-K(Pal)VQKLSAPVDPSSPHSY-NH2 [SEQ ID NO:206]", "liquid gel"],
  ["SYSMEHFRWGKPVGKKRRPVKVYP-OH [SEQ ID NO:33, reference compound]", "does not form gel"],
  ["Palmitoyl-SSPHSY[AEEA]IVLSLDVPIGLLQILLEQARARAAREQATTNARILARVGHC-NH2 [SEQ ID NO:230]", "semisolid or liquid gel"],
  ["YADAIFTNSYRKVLGQLSARKLLQDIMSR-NH2 [SEQ ID NO:35, reference compound]", "does not form gel"],
  ["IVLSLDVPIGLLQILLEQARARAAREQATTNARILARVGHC-NH2 [SEQ ID NO:31, reference compound]", "does not form gel"],
  ["SDAAVDTSSEITTKDLKEKKEVVEEAEN-NH2 (ends and bridges not checked) [SEQ ID NO:13, reference compound]", "semisolid gel"],
  ["Pal-KVQKLSAPVDPSSPHSY-miniPEG-Sar-RVYVHPA-NH2 [SEQ ID NO:216]", "liquid gel"],
  ["(G1p)RPRLSHKGP(Nle)PF-K(Pal)HSY-NH2 [SEQ ID NO:262]", "liquid gel"],
  ["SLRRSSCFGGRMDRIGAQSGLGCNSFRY-NH2 [SEQ ID NO:41, reference compound]", "does not form gel"],
  ["Pal-HSYSLDVPIGLLQILLEQARARAAREQATTNARILARVGHC-NH2 [SEQ ID NO:265]", "semisolid or liquid gel"],
  ["Pal-SSPHSY-miniPEG-VGVAPG-NH2 [SEQ ID NO:248]", "semisolid gel"],
  ["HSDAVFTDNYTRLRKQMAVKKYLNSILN [SEQ ID NO:67, reference compound]", "does not form gel"],
  ["(Glp)RPRLSHKGP(Nle)PF-NH2 (pyroGlu; Nle; C-terminal amide) [SEQ ID NO:18, reference compound]", "does not form gel"],
  ["Pal-RQSMNNFQGLRSFGCRFGTCTVQKLAHQIYQFTDKDKDNVAPRSKISPQGY-NH2 [SEQ ID NO:274]", "semisolid gel"],
  ["EAYKAAEKAYAAKEAAKEAAKAKAEKKAAYAKAKAAKYEKKAKKAAAEYKKK [SEQ ID NO:42, reference compound]", "does not form gel"]
]}
